Molecular target: COX-2 (Homo sapiens, UniProt P35354)
Construct: endogenous in cells; host or cells: fresh heparinized human whole blood from volunteers, induced with LPS
Sequence (P35354 18-604): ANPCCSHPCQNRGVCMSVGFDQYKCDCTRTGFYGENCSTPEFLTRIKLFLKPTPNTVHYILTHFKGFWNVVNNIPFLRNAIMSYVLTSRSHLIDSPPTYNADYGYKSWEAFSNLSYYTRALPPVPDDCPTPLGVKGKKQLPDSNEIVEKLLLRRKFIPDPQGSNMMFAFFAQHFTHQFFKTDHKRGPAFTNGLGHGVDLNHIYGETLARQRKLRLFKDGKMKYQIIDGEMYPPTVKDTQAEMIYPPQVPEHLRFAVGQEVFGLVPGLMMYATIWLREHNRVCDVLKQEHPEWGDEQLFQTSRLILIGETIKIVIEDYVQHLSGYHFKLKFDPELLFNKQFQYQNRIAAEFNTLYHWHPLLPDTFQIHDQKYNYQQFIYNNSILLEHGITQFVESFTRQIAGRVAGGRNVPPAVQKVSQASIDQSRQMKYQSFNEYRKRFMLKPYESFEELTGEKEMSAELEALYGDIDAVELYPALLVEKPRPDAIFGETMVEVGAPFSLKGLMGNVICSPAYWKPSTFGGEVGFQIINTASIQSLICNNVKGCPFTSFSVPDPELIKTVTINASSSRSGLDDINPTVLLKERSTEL
Test: Human whole blood assay, COX-2 (LPS-induced PGE2 production)
Assay type: cell-based
Conditions: 24 hours at 37°C, read-out: COX-2 (IC50 µM) HWB
parameter: IC50 (µM)
Numbers only here, please. The scale is µM.

>>> reported("CS(=O)(=O)c1ccc(-c2cnn(CC3CC3)c(=O)c2-c2ccc(F)c(F)c2)cc1")
3.2
>>> reported("CS(=O)(=O)c1ccc(-c2cnn(Cc3ccc(F)cc3)c(=O)c2-c2ccccc2)cc1")
0.9
>>> reported("CS(=O)(=O)c1ccc(-c2cnn(CC3CC3)c(=O)c2-c2ccccc2)cc1")
1.3
>>> reported("CS(=O)(=O)c1ccc(-c2cnn(-c3ccccc3)c(=O)c2-c2ccccc2)cc1")
4.7

Please look up its IC50: CS(=O)(=O)c1ccc(-c2cnn(Cc3ccccc3)c(=O)c2-c2ccc(F)c(F)c2)cc1
1.9

====

Molecular target: COX-2 (Homo sapiens, UniProt P35354)
Construct: endogenous in cells; host or cells: fresh heparinized human whole blood from volunteers, induced with LPS
Test: Whole cell assay for COX-2 using CHO transfected cell line (CHO [hCOX-2])
Type: cell-based
Conditions: CHO[hCOX-2] cells, 10 µM AA, PGE2 synthesis
parameter: IC50 (µM)
Respond with the bare value in µM.

>>> reported("Cn1ncc(-c2ccc(S(C)(=O)=O)cc2)c(-c2ccccc2)c1=O")
0.7
>>> reported("CS(=O)(=O)c1ccc(-c2cnn(CC3CC3)c(=O)c2-c2ccccc2)cc1")
0.07
>>> reported("CS(=O)(=O)c1ccc(-c2cnn(-c3ccccc3)c(=O)c2-c2ccccc2)cc1")
0.08
>>> reported("COC(=O)Cn1ncc(-c2ccc(S(C)(=O)=O)cc2)c(-c2ccccc2)c1=O")
5
>>> reported("CS(=O)(=O)c1ccc(-c2cnn(Cc3ccccc3)c(=O)c2-c2ccc(F)c(F)c2)cc1")
0.04
>>> reported("CS(=O)(=O)c1ccc(-c2cnn(CC(F)(F)F)c(=O)c2-c2ccccc2)cc1")
0.5
>>> reported("CS(=O)(=O)c1ccc(-c2cnn(CC3CC3)c(=O)c2-c2ccc(F)c(F)c2)cc1")
0.16
>>> reported("CS(=O)(=O)c1ccc(-c2cnn(Cc3ccc(F)cc3)c(=O)c2-c2ccccc2)cc1")
0.17

Note: attention shifts to another entry.
Recorded IC50 for CC(C)n1ncc(-c2ccc(S(C)(=O)=O)cc2)c(-c2ccccc2)c1=O , please?
0.6
